# Test system: NCI/ADR-RES
# testSummary: NCI tumour cell line growth inhibition, 48 h
Calls of active or inactive are those of the source. No stated cut-off is given here; in the data, active = GI50 up to about 1.1 µM and inactive = higher.
Possible outcomes: active, inactive

>>> print(df.to_string())
                                   compound  category
0  Cc1c(C(=O)c2ccc(N)c3ccccc23)c2ccccc2n1CCN1CCOCC1  inactive
1         O=P1(Cc2ccccc2)c2ccccc2-c2ccccc21  inactive
2                NC(=O)N/N=C1\CCCCc2ccccc21  inactive
3                     C=C(C)CN(CC#N)CC(=C)C  inactive
4  C=C1[C@H](OCC(C)C)[C@@H](OCC(C)C)[C@@H](O)C(C)(C)/C=C/[C@H](C)C(=O)[C@@]2(O)C[C@H](C)[C@H](O)[C@@H]2[C@H]1OCC(C)C  inactive
5  CCCC(=O)Nc1cc(/C=C/C(=O)N2CC(CCl)c3ccc(N)cc32)n(C)c1 (stereo unspecified)    active
